This listing pairs sequences with measured phosphorylation enrichment.
Target: Jak2 (UniProt O60674)
Sequence (O60674 whole entry, looked up): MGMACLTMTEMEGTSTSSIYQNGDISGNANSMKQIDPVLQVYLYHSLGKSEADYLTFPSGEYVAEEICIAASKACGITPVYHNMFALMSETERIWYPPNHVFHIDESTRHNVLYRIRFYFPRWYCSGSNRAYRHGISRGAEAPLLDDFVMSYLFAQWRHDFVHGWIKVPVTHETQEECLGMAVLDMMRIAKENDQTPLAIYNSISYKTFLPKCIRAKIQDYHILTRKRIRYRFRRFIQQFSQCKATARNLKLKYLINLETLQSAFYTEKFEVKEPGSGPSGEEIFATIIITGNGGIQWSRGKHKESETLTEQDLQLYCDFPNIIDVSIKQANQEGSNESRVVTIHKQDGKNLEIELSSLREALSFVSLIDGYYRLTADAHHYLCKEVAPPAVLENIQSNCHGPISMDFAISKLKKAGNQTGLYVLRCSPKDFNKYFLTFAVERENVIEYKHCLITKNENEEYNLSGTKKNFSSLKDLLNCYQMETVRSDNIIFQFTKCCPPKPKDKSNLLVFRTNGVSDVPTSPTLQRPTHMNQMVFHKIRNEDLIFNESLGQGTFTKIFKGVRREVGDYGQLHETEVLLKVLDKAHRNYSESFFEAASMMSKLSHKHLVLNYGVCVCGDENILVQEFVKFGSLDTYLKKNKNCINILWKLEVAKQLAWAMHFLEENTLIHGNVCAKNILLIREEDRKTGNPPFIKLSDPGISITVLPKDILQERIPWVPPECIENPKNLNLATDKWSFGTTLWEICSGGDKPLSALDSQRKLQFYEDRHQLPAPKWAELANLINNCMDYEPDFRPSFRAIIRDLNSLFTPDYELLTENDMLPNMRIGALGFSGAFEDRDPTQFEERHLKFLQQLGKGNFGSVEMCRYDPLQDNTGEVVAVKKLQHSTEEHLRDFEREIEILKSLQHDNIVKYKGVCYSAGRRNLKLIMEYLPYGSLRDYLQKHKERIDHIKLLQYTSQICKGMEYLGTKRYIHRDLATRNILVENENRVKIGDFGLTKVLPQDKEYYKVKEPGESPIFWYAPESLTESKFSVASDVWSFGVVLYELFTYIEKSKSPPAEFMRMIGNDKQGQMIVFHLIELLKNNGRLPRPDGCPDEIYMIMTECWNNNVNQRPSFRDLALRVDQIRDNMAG
Assay: phosphorylation enrichment, bacterial display (enrichment ratio); higher = better substrate or ligand; peptides without Tyr show the background
No unit in the answer, only the number.

Exercise: Short answer please: phosphorylation enrichment, Jak2 (UniProt O60674), entry RHPLDYLRQYP [NARS2_Y138_E137D]
Key: 1.01

Exercise: Observed phosphorylation enrichment on Jak2 (UniProt O60674) for LSGVIYVILRK [PMP22_Y153] , please.
Key: 0.633

Exercise: I'm curious: which phosphorylation enrichment was measured for GGDVIYKGFED [NFU1_Y194] tested on Jak2 (UniProt O60674)?
Key: 0.924

Exercise: Query phosphorylation enrichment on Jak2 (UniProt O60674) for VNTMLYEKFTF [TEK_Y1108_T1106M_YF]
Key: 0.917

Exercise: Notebook: pull reported phosphorylation enrichment for Jak2 (UniProt O60674), entry QRHFVYFFSFL [PTEN_Y176_R173H_YF]
Key: 1.46

Exercise: Request - read-out phosphorylation enrichment | tested on Jak2 (UniProt O60674) | sequence PGIRMYRVQYN [LRFN1_Y454_Q455R]
Key: 0.626

Exercise: Under Jak2 (UniProt O60674): phosphorylation enrichment value of ASNFNYFFHRE [KCNA1_Y413_V408A_YF] ?
Key: 0.805

Exercise: Record lookup: for Jak2 (UniProt O60674), what phosphorylation enrichment belongs to TLERHYEELQA [SPTBN2_Y834] ?
Key: 0.947

Exercise: For the record CTTIHCNYMCN [TP53_Y234_Y234C] , what value of phosphorylation enrichment is listed for Jak2 (UniProt O60674)?
Key: 0.921

====

Biological target: c-Src SH2;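 note: peptide library displayed on the E. coli surface as eCPX fusions, selected cells deep-sequenced, score is each peptide's frequency after selection divided by its frequency in the input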
Test: SH2 binding enrichment of the phosphorylated peptide, bacterial display (enrichment ratio); higher = better substrate or ligand; peptides without Tyr show the background
measured_metric: SH2 binding enrichment

Exercise: Sample DTLLEYLENPK [CYCS_Y68_M66L] — what was its SH2 binding enrichment?
Key: 0.501

Others:
Exercise: Which SH2 binding enrichment value is on record for VSAPEYGPKLK [TBC1D14_Y46_L41V] ?
Key: 0.497

Exercise: Quick check: SH2 binding enrichment of KVNKIYHPDFI [LIG3_Y767_Y768H] ?
Key: 0.494

Exercise: Tell me the measured SH2 binding enrichment of TTKAKYKTPTF [PLD2_Y573_YF] , please.
Key: 0.509

====

Target: MERTK (UniProt Q12866)
Sequence (Q12866 whole entry, looked up): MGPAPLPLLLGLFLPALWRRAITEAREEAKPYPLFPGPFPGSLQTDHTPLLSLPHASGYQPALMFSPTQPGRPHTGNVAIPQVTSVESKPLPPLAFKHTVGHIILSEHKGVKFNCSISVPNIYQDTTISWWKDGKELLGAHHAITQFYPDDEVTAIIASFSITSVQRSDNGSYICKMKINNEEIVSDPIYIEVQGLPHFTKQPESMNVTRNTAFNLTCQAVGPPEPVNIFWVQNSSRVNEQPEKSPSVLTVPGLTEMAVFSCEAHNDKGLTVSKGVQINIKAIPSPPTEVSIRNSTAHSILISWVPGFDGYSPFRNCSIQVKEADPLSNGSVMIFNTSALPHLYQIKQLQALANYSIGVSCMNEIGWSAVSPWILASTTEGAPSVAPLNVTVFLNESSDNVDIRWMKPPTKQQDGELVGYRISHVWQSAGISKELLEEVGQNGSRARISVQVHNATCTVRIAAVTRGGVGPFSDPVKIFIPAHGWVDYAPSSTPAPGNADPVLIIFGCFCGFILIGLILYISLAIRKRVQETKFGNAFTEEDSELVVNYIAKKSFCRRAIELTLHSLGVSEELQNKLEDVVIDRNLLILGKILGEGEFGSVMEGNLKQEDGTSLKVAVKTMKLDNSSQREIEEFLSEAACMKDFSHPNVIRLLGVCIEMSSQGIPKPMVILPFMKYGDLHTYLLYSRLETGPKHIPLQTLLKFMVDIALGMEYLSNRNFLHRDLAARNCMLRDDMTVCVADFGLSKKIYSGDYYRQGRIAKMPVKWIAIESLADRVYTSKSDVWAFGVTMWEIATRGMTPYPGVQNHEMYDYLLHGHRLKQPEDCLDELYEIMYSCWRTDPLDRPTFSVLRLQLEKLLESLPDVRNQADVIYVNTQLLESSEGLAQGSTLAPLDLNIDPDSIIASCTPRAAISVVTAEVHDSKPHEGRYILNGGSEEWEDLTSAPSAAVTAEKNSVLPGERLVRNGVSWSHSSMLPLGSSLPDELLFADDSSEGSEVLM
Experiment: phosphorylation enrichment, bacterial display (enrichment ratio); higher = better substrate or ligand; peptides without Tyr show the background
Binary classification by phosphorylation enrichment, with 0.4 as an inclusive lower bound for rule met; all other cases are rule not met.

Exercise: Identify whether the reported phosphorylation enrichment of the following sequence is 0.4 or greater: LARNMYDKEYY [MET_Y1230_D1228N]
Key: rule not met

Exercise: Determine whether measured phosphorylation enrichment meets or exceeds 0.4 for LFPANYVAPMT [GRAP2_Y324]
Key: rule met

Exercise: Dear colleague, could you confirm whether EAVKNYTEKRG [PBRM1_Y672_D674E] has phosphorylation enrichment at or above 0.4?
Key: rule not met

Exercise: For this sequence, is measured phosphorylation enrichment 0.4 or higher? AVVEPYNSILT [TUBA1A_Y185]
Key: rule met

Exercise: For this sequence, is measured phosphorylation enrichment 0.4 or higher? PGGNIYISPLK [RB1_Y805]
Key: rule met

More entries:
Exercise: State whether the measured phosphorylation enrichment reaches 0.4, counting equality as reaching it, for LRRREYQRQDY [PRKRIP1_Y90]
Key: rule met

Exercise: Decide: is the reported value of phosphorylation enrichment for KRLYAYKMLMA [TMC2_Y209_Q205R] equal to or greater than 0.4?
Key: rule not met

Exercise: Test whether the sequence FKEQGYHRLPS [RIN1_Y681_P686S_YF] records phosphorylation enrichment of 0.4 or higher.
Key: rule met

Exercise: Check the entry LWKWRYEELKE [CCDC102B_Y299_K298R] : does phosphorylation enrichment equal or exceed 0.4?
Key: rule met

src = the supplement of paper PMC10065799
